Origin of measurements: patent US20260226084A1

tested on: MiaPaca-2 cells; assay: MiaPaca-2 Cell Proliferation Assay; assay type: cell-based; conditions: Homo sapiens, MIA PaCa-2, MiaPaca-2 cells; Table 2; read-out: Inhibition of cell proliferation in MiaPaca-2 (IC50 class)
measurement_label: IC50

Reference set (3 entries):
Cc1ccc(NC(=O)c2cncc(C(F)(F)F)n2)cc1-c1ccnc(-c2ccnc(NC(=O)C3CC3)c2)c1 : 1000 to 10000 nM
Cc1ccc(NC(=O)c2cc(C(F)(F)F)cnn2)cc1-c1ccnc(-c2ccnc(NC=O)c2)c1 : < 100 nM
Cc1ncc(NC(=O)c2cc(C(F)(F)F)cnn2)cc1-c1ccnc(-c2ccnc(NC(=O)C3CC3)c2)c1 : 1000 to 10000 nM

QUERY: May I ask what IC50 has been recorded for Cc1ccc(NC(=O)c2cc(C(C)C)cnn2)cc1-c1ccnc(-c2ccnc(NC(=O)C3CC3)c2)c1 ?
RESULT: 100 to 500 nM
